// provenance: patent US12428415B2

I'd appreciate it if you could supply inhibition at 1 µM values for the items below.
measured.on: Human Recombinant Matriptase 2 (Homo sapiens, UniProt Q8IU80)
Construct: purchased Enzo Life Sciences (an in-house preparation was also used) ALX-201-752-1
Sequence (Q8IU80 whole entry): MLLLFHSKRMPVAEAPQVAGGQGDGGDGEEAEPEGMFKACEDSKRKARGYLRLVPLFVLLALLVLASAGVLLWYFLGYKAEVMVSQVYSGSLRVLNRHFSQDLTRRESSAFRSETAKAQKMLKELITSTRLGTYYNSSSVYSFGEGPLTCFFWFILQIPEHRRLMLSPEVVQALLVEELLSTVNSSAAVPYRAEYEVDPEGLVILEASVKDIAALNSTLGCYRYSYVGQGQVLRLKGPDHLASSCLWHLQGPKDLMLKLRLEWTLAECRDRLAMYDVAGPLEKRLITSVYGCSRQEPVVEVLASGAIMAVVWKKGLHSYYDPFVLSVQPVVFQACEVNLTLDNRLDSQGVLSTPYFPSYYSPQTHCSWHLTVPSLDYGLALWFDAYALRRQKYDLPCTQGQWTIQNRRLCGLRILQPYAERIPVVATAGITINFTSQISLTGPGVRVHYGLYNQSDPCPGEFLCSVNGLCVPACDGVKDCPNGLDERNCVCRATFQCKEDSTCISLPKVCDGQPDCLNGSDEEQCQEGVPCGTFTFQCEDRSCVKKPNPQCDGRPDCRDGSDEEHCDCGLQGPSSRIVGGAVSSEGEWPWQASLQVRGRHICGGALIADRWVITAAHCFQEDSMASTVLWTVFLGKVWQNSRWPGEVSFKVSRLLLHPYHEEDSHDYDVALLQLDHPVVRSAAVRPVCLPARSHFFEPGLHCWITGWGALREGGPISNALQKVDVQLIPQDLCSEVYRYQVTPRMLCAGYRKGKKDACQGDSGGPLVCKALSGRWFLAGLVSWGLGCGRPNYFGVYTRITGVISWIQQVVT
experimental.protocol: Matriptase 2 fluorescence based inhibition assay, Method A (100 mM TRIS pH 9, 1 mg/mL BSA)
Type: biochemical
experimental.context: at 1 uM; Assay Used = A; read-out: Mar-2 % inhibition at 1 uM

Reference set, count: 4
compound="N=C(N)c1ccc2cc(C(=O)N[C@H]3CC[C@H](N)CC3)n(Cc3ccc(N)cc3)c2c1 [Compound I-261]" endpoint_result="25 to 50%"
compound="N=C(N)c1ccc2cc(C(=O)N3CCC(CCN)CC3)n(CCc3ccccc3)c2c1 [Compound I-299]" endpoint_result="25 to 50%"
compound="N=C(N)c1ccc2cc(C(=O)N[C@H]3CC[C@H](N)CC3)n(Cc3ccc(-c4ccccc4)cc3)c2c1 [Compound I-234]" endpoint_result="25 to 50%"
compound="Cc1csc(NC(=O)c2cc3ccc(C(=N)N)cc3n2Cc2ccc(C(N)=O)cc2)n1 [Compound I-266]" endpoint_result="0 to 25%"

In the following, a different compound is considered.
Q) Entry under review: N=C(N)c1ccc2cc(C(=O)NCC3CCCCC3)n(Cc3ccc(C(N)=O)cc3F)c2c1 [Compound I-227] . Reported inhibition at 1 µM?
A) 0 to 25%

---

measured.on: Human Recombinant Matriptase 2 (Homo sapiens)
Construct: purchased Enzo Life Sciences (an in-house preparation was also used) ALX-201-752-1
experimental.protocol: Matriptase 2 fluorescence based inhibition assay, Method A (100 mM TRIS pH 9, 1 mg/mL BSA)
Assay type: biochemical
experimental.context: 1 uM; Assay Used A; read-out: Mar-2 % inhibition at 1 uM
What inhibition at 1 µM was measured for each of the following?

smi=N=C(N)c1ccc2c(N)c(C(=O)N[C@H]3CC[C@H](N)CC3)n(CCc3ccc(C(F)(F)F)cc3)c2c1 endpoint_result="0 to 25%"
smi=N=C(N)c1ccc2cc(C(=O)NCc3cccc(N4CCCC4)c3)n(Cc3ccc(C(N)=O)cc3)c2c1 endpoint_result="25 to 50%"
smi=N=C(N)c1ccc2cc(C(=O)Nc3cccc(-n4cccn4)c3)n(Cc3ccc(C(N)=O)cc3)c2c1 endpoint_result="25 to 50%"
smi=N=C(N)c1ccc2cc(C(=O)Nc3cccc(-n4ccc(C(F)(F)F)n4)c3)n(Cc3ccc(C(N)=O)cc3)c2c1 endpoint_result="0 to 25%"

Field: inhibition at 1 µM. Fill in for each record below.
1. N=C(N)c1ccc2cc(C(=O)Nc3ccc(C(=O)N4CCC4)cc3)n(Cc3ccc(C(N)=O)cc3)c2c1
2. CC(C)c1ccc(Cn2c(C(=O)N[C@H]3CC=CCC3)cc3ccc(C(=N)N)cc32)cc1
3. CC(C)c1ccc(Cn2c(C(=O)NC3CCC(F)(F)CC3)cc3ccc(C(=N)N)cc32)cc1
4. N=C(N)c1ccc2cc(C(=O)Nc3ccc(Oc4ccccc4)cc3)n(Cc3ccc(C(N)=O)cc3)c2c1
5. CCc1ccc(-c2cccc(CCn3c(C(=O)N[C@H]4CC[C@H](N)CC4)cc4ccc(C(=N)N)cc43)c2)cc1
6. N=C(N)c1ccc2cc(C(=O)N[C@@H]3CC=CCC3)n(Cc3ccc(C(N)=O)cc3)c2c1
7. N=C(N)c1ccc2cc(C(=O)Nc3ccc(N4CC[C@@H](F)C4)cc3)n(Cc3ccc(C(N)=O)cc3)c2c1

A)
1. 0 to 25%
2. 0 to 25%
3. 0 to 25%
4. 0 to 25%
5. 25 to 50%
6. 0 to 25%
7. 25 to 50%

---

measured.on: Human Recombinant Matriptase 2 (Homo sapiens, UniProt Q8IU80)
Construct: purchased Enzo Life Sciences (an in-house preparation was also used) ALX-201-752-1
experimental.protocol: Matriptase 2 fluorescence based inhibition assay, Method B (50 mM TRIS pH 7.5, 150 mM NaCl, 0.01% gelatin)
Format: biochemical
experimental.context: 1 uM compound; Assay Used = B (Method B); read-out: Mar-2 % inhibition at 1 uM
readout.kind: inhibition at 1 µM

The following compounds have reported results that may help.
compound="CCCCCCOC(=O)NC(=N)c1ccc2cc(C(=O)NC3CCN(C)CC3)n(Cc3cccc4ccccc34)c2c1 [Compound I-765]" endpoint_result="0 to 25%"
compound="N=C(N)c1ccc2cc(C(=O)N[C@H]3CC[C@H](N)CC3)n(Cc3cccc4cc(OCc5ccccc5)ccc34)c2c1 [Compound I-740]" endpoint_result="75 to 100%"

Please look at the items below and tell me inhibition at 1 µM for each one, in order.
1. N=C(N)c1ccc2cc(C(=O)OCCN)n(Cc3cc(Oc4ccccc4)cc4ccccc34)c2c1 [Compound I-629]
2. COc1cccc(Oc2cc(Cn3c(C(=O)O)cc4ccc(C(=N)N)cc43)c3ccccc3c2)c1 [Compound I-686]

A)
75 to 100%
50 to 75%

For every item in the list below, what is its measured inhibition at 1 µM?
1. N=C(N)c1ccc2cc(CC(=O)O)n(Cc3cccc4ccccc34)c2c1 [Compound I-716]
2. NC(=NO)c1ccc2cc(C(=O)O)n(Cc3cccc4ccccc34)c2n1 [Compound I-650]
3. COC(=O)NCCOC(=O)c1cc2ccc(C(=N)N)cc2n1Cc1cccc2ccccc12 [Compound I-602]

A)
75 to 100%
0 to 25%
50 to 75%

Q) # query: inhibition at 1 µM of entry N=C(N)c1ccc2cc(C(=O)N[C@H]3CC[C@H](N)CC3)n(Cc3ccc(COCc4ccccc4)c4ccccc34)c2c1 [Compound I-781]
A) 75 to 100%

---

measured.on: Human Recombinant Matriptase 2 (Homo sapiens, UniProt Q8IU80)
Construct: purchased Enzo Life Sciences (an in-house preparation was also used) ALX-201-752-1
experimental.protocol: Matriptase 2 fluorescence based inhibition assay, Method B (50 mM TRIS pH 7.5, 150 mM NaCl, 0.01% gelatin)
Assay type: biochemical
experimental.context: 1 uM compound; Assay Used = B; read-out: Mar-2 % inhibition at 1 uM
Give inhibition at 1 µM for every item shown.

Record excerpt, results attached:
molecule="N=C(N)c1ccc2cc(C(=O)NC3CC4CC3CN4)n(Cc3cccc4ccccc34)c2c1 (stereo not drawn)" measured_on="Human Recombinant Matriptase 2 (Homo sapiens, UniProt Q8IU80)" endpoint_result="75 to 100%"
molecule=COC(=O)NCCNC(=O)c1cc2ccc(C(=N)N)cc2n1Cc1cccc2ccccc12 measured_on="Human Recombinant Matriptase 2 (Homo sapiens, UniProt Q8IU80)" endpoint_result="75 to 100%"

Next:
Q) I'd like to know its inhibition at 1 µM. The molecule in question is N=C(N)c1ccc2cc(C(=O)NC3CCCNC3)n(Cc3cccc4ccccc34)c2c1 (stereo not drawn)
A) 75 to 100%

---

measured.on: Human Recombinant Matriptase 2 (Homo sapiens, UniProt Q8IU80)
Construct: purchased Enzo Life Sciences (an in-house preparation was also used) ALX-201-752-1
experimental.protocol: Matriptase 2 fluorescence based inhibition assay, Method A (100 mM TRIS pH 9, 1 mg/mL BSA)
Format: biochemical
experimental.context: 1 uM; Assay Used A; read-out: Mar-2 % inhibition at 1 uM
readout.kind: inhibition at 1 µM

compound=N=C(N)c1ccc2cc(C(=O)Nc3ccc(F)cc3)n(Cc3ccc(C(N)=O)cc3)c2c1 measured_on="Human Recombinant Matriptase 2 (Homo sapiens, UniProt Q8IU80)" readout_kind="inhibition at 1 µM" endpoint_result="0 to 25%"
compound=C[C@@H](NC(=O)c1cc2ccc(C(=N)N)cc2n1Cc1ccc(C(N)=O)cc1)C1CCCCC1 measured_on="Human Recombinant Matriptase 2 (Homo sapiens, UniProt Q8IU80)" readout_kind="inhibition at 1 µM" endpoint_result="0 to 25%"
compound=N=C(NC(=O)OC1CCCCC1)c1ccc2cc(C(=O)Nc3cccc(N4CCCC4)c3)n(Cc3ccc(C(N)=O)cc3)c2c1 measured_on="Human Recombinant Matriptase 2 (Homo sapiens, UniProt Q8IU80)" readout_kind="inhibition at 1 µM" endpoint_result="0 to 25%"
compound=N=C(N)c1ccc2cc(C(=O)Nc3cc(F)c(F)c(F)c3)n(Cc3ccc(C(N)=O)cc3)c2c1 measured_on="Human Recombinant Matriptase 2 (Homo sapiens, UniProt Q8IU80)" readout_kind="inhibition at 1 µM" endpoint_result="0 to 25%"
compound=N=C(N)c1ccc2cc(C(=O)Nc3cccc(-c4ncc[nH]4)c3)n(Cc3ccc(C(N)=O)cc3)c2c1 measured_on="Human Recombinant Matriptase 2 (Homo sapiens, UniProt Q8IU80)" readout_kind="inhibition at 1 µM" endpoint_result="25 to 50%"

Hi! Can you tell me inhibition at 1 µM for each of these compounds?
1. N=C(N)c1ccc2cc(C(=O)Nc3cccc(OCC4CC4)c3)n(Cc3ccc(C(N)=O)cc3)c2c1
2. Cc1ccnc(NC(=O)c2cc3ccc(C(=N)N)cc3n2Cc2ccc(C(N)=O)cc2)c1
3. N=C(N)c1ccc2cc(C(=O)Nc3cccc(-n4cc(C(F)(F)F)cn4)c3)n(Cc3ccc(C(N)=O)cc3)c2c1
4. N=C(N)c1ccc2cc(C(=O)Nc3cccc(F)c3)n(Cc3ccc(C(N)=O)cc3)c2c1

A)
0 to 25%
0 to 25%
0 to 25%
0 to 25%
